# Test system: CP203
# protocol.notes: qHTS profiling for inhibitors of Plasmodium falciparum proliferation (AID 504749); note: nearly all actives have a fitted effect of over 60% in size
# stated.conditions: P. falciparum in erythrocytes, SYBR Green DNA, 72 h; series mostly up to 28.7 µM
Results filed as inconclusive are left out. Active and inactive are the calls of the source. Calls come from the whole dose curve; as a rule, active = well fitted inhibition curve with a large enough effect; inconclusive = small, poorly fitted or top-dose-only effect; inactive = flat fitted curve, though single readings scatter.
assay.readout: outcome

Recorded results for 4 molecules are shown here.
CS(=O)(=O)c1ccc(C2=C(c3ccccc3)C(=O)OC2)cc1 : inactive
N#CC(c1ccc(Cl)cc1)c1c(Cl)cc(-n2ncc(=O)[nH]c2=O)cc1Cl (configuration not stated) : inactive
C=C1c2cccc(O)c2C(O)=C2C(=O)[C@@]3(O)C(O)=C(C(N)=O)C(=O)[C@@H](N(C)C)[C@@H]3[C@@H](O)[C@H]12 : inactive
COc1cc2c(cc1OC)CC(=O)N(CCCN(C)C[C@H]1Cc3cc(OC)c(OC)cc31)CC2 : inactive

The molecule listed as COc1ccnc(CS(=O)c2nc3ccc(OC(F)F)cc3[nH]2)c1OC (configuration not stated) has a reported outcome of inactive

The molecule listed as O=C(O)c1nc(=O)[nH]c(=O)[nH]1 has a reported outcome of inactive

The molecule listed as Cc1cc2nc3c(=O)[nH]c(=O)nc-3n(CC(O)C(O)C(O)CO)c2cc1C (configuration not stated) has a reported outcome of inactive

Hello, the source for this data is PubChem BioAssay (NCATS), in case you need it.
